# targetOfAssay: Carbonic anhydrase 9 (Homo sapiens)
# testDescription: Inhibition of human recombinant carbonic anhydrase 9 preincubated for 15 mins by stopped-flow CO2 hydrase assay
// boundary case: Ki equal to 3 nM maps to label 0; strictly smaller maps to label 1

structureString | categoryLabel
CCO/C=N/c1c(C#N)c(-c2ccc(Br)cc2)cn1-c1ccc(S(N)(=O)=O)cc1 | label 0
CCOC(=O)n1c(=O)nc2c3c(-c4ccc(Br)cc4)cn(-c4ccc(S(N)(=O)=O)cc4)c3ncn21 | label 1
N#CC1=C(N)N=C2c3c(-c4ccc(Br)cc4)cn(-c4ccc(S(N)(=O)=O)cc4)c3N=CN2N=C1 | label 0
CCOC(=O)c1nc2c3c(-c4ccc(Br)cc4)cn(-c4ccc(S(N)(=O)=O)cc4)c3ncn2n1 | label 1
NS(=O)(=O)c1ccc(-n2cc(-c3ccc(Br)cc3)c3c2ncn2[nH]c(=O)c(=O)nc32)cc1 | label 0
CC1=CC(C)=NN2C=Nc3c(c(-c4ccc(Br)cc4)cn3-c3ccc(S(N)(=O)=O)cc3)C2=N1 | label 0
